procedure.details: NCI Yeast Anticancer Drug Screen. Data for the mlh1 rad18 strain (AID 175)
condition.summary: S. cerevisiae mlh1 rad18 strain growth inhibition; at 50.0 µM (retest, dose inferred, filed as 5.0); active compounds read high
Compounds without any hit were thinned out: in the full panel of roughly 79,000, 15% have a hit.
Rule: growth inhibition of 90% or more gives satisfied; anything lower gives not satisfied.

| molecule | class.label |
| --- | --- |
| CCCCCCCCCCCCOC1C(COCCN2CCCC2)OC2OC(C)(C)OC21 (stereo not given) | satisfied |
| CC(O)CN1C(=O)c2cccc3cc([N+](=O)[O-])cc(c23)C1=O (stereo not given) | not satisfied |
| CCOC(=O)c1[nH]c2cccc3c2c1CC(Br)C3=O (stereo not given) | satisfied |
| CCOc1ccccc1N1C(=O)CC(Sc2ccccc2N)C1=O (stereo not given) | not satisfied |
| CN(NC(=O)/C(=C/C=C/c1ccccc1)NC(=O)c1ccccc1)C1=C(Cl)C(=O)[N+](c2ccccc2)=CC1 | not satisfied |
| O=Cc1ccccc1B(O)O | satisfied |
| CCN(CC)CCSc1c2ccccc2nc2cc(NCC(=O)Nc3ccccc3-c3ccccc3NC(=O)CNc3ccc4c(SCCN(CC)CC)c5ccccc5nc4c3)ccc12 | satisfied |
| c1ccc(C2=NNC3c4ccccc4-c4ccccc4N3C2)cc1 (stereo not given) | not satisfied |
| N=c1oc2ccccc2cc1-c1nc2ccccc2[nH]1 | not satisfied |

###

procedure.details: NCI Yeast Anticancer Drug Screen. Data for the mlh1 rad18 strain (AID 175)
condition.summary: S. cerevisiae mlh1 rad18 strain growth inhibition; at 50.0 µM
Compounds without any hit were thinned out: in the full panel of roughly 79,000, 15% have a hit. Calls of active or inactive are those of the source. Rule as the data show it: active = growth inhibition above about 70%; inactive = the rest.
Outcomes: active, inactive

| compound | class.label |
| --- | --- |
| CCOc1ccccc1N1C(=O)CC(Sc2ccccc2N)C1=O (stereo unspecified) | inactive |
| S=c1[nH]nc(Cc2ccccc2)c(=S)[nH]1 | active |
| O=[N+]([O-])c1ccc2nnnn2c1 | inactive |
| COc1ccc(CCN2C(=O)C=CC2=O)cc1OC | active |
| Cc1cc(NCCCN(C)C)c2ccc3c(ccc4c(NCCCN(C)C)cc(C)nc43)c2n1 | inactive |
| BrC/C=C/C[P+](c1ccccc1)(c1ccccc1)c1ccccc1 | active |

###

procedure.details: NCI Yeast Anticancer Drug Screen. Data for the sgs1 mgt1 strain (AID 161);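 also: 0% = growth of cultures given vehicle only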
condition.summary: S. cerevisiae sgs1 mgt1 strain, at 50.0 µM (retest, dose inferred, filed as 5.0), active compounds read high
About 79,000 compounds went through this panel and 15% of them were active in at least one assay; those are over-represented in the sample as a whole. Active and inactive are the calls of the source. Rule as the data show it: active = growth inhibition above about 70%; inactive = the rest.

| compound | growth inhibition |
| --- | --- |
| CNc1ccc2[nH]c3ccccc3c2c1 | 13% (inactive) |
| O=C(CSS(=O)(=O)O)c1ccccc1 | 69% (inactive) |
| Nc1c([N+](=O)[O-])cc2c3c(cccc13)CC2 | 54% (inactive) |
| CN(NC(=O)/C(=C/C=C/c1ccccc1)NC(=O)c1ccccc1)C1=C(Cl)C(=O)[N+](c2ccccc2)=CC1 | 8% (inactive) |
| CCCCOc1ccc(Nc2c3ccccc3nc3ccccc23)cc1 | 94% (active) |
| O=Cn1c2ccccc2c2ccccc21 | 46% (inactive) |
| COc1cc(C(C)(C)C)cc(OC)c1C(O)(c1c(OC)cc(C(C)(C)C)cc1OC)c1c(OC)cc(C(C)(C)C)cc1OC | 97% (active) |
| CCCC#CCOC(=O)c1cc([N+](=O)[O-])cc([N+](=O)[O-])c1 | 100% (active) |
| CCC1SC(=S)N(c2ccc(Cl)cc2)C1=O (stereo not drawn) | 68% (inactive) |
| CCCCCCCCCCCCOC1C(COCCN2CCCC2)OC2OC(C)(C)OC21 (stereo not drawn) | 99% (active) |
| O=C(Nc1ccn(C2CC(O)C(COC(c3ccccc3)(c3ccccc3)c3ccccc3)O2)c(=O)n1)c1ccccc1 (stereo not drawn) | 94% (active) |
| c1cc2ccc3cc4ncccc4c4ccc(c1)c2c34 | 93% (active) |
| CN(Cc1cccc2ccccc12)Cc1cccc2ccccc12 | 51% (inactive) |

###

procedure.details: NCI Yeast Anticancer Drug Screen. Data for the mlh1 strain (AID 171);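 also: 0% = growth of vehicle-treated control cultures of the same strain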
condition.summary: S. cerevisiae mlh1 strain growth inhibition; at 1.2 µM; active compounds read high
Protocol: Growth inhibition of yeast strains with defined genetic alterations is measured as a screen for potential anti-cancer activity. Selected strains with alterations in DNA damage repair or cell cycle control were exposed to compounds and growth inhibition was measured relative to vehicle treated controls. The strain used in this assay is mlh1
Compounds without any hit were thinned out: in the full panel of roughly 79,000, 15% have a hit.
readout: growth inhibition (%)

| compound | units.label | observed.value |
| --- | --- | --- |
| O=C1c2ccccc2C2CCC1c1ccccc12 (stereo not given) | % | -3 |
| O=C(O)CN(CCNC(=O)OCC1c2ccccc2-c2ccccc21)CCNC(=O)OCC1c2ccccc2-c2ccccc21 | % | -1 |
| CCOC(=O)/C=C1\CCCn2c1ncc(C(=O)OCC)c2=O | % | 2 |
| CC(O)CN1C(=O)c2cccc3cc([N+](=O)[O-])cc(c23)C1=O (stereo not given) | % | 5 |
| CCOC(=O)C1=C(C)NC(C)=C(C(=O)OCC)C1c1cccc([N+](=O)[O-])c1 | % | -74 |

###

procedure.details: NCI Yeast Anticancer Drug Screen. Data for the rad50EPP+ strain (AID 151);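 also: 0% = growth of vehicle-treated control cultures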
condition.summary: S. cerevisiae rad50 mutant strain, at 100.0 µM, active compounds read high
Protocol: Growth inhibition of yeast strains with defined genetic alterations is measured as a screen for potential anti-cancer activity. Selected strains with alterations in DNA damage repair or cell cycle control were exposed to compounds and growth inhibition was measured relative to vehicle treated controls. The strain used in this assay is rad50EPP+
This is part of a sample that, as a whole, favours compounds with a hit. Of some 79,000 tested, about 15% had one in any assay.
readout: growth inhibition (%)

| compound | observed.value |
| --- | --- |
| CN(C)N1C(=O)SCC(c2ccccc2)(c2ccccc2)C1=O | 7 |
| Nc1cccc2cc(Cl)cnc12 | 76 |
| CCOC(=O)c1[nH]c2cccc3c2c1CC(Br)C3=O (stereo not drawn) | 62 |
| CNc1ccc2[nH]c3ccccc3c2c1 | 65 |
| CCC(C)C(=O)OCC(=O)c1ccc(-c2ccccc2)cc1 (stereo not drawn) | 9 |
| OC1C#CCSCC#C/C=C\1 (stereo not drawn) | 86 |
| Cc1ccccc1C1=C(CC(=O)O)c2ccccc2CC1C (stereo not drawn) | 49 |
| O=S(=O)(Oc1c(Cl)cc(Cl)cc1Cl)c1ccccc1 | 89 |
| [Cl][Pt+2][Cl].[NH-]CC1(C[NH-])CCCCC1 | 98 |
| Oc1ccc(Br)cc1C=Nc1cccc(C(F)(F)F)c1 | 64 |
| NCC(O)CSCc1ccc(Cl)cc1 (stereo not drawn) | -2 |
| O=[N+]([O-])c1ccc2nnnn2c1 | 79 |
| Cc1ccc2oc(-c3cccc(N)c3)nc2c1 | 36 |

###

procedure.details: NCI Yeast Anticancer Drug Screen. Data for the CLN2oe strain (AID 163);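 also: 0% = growth of vehicle-only control cultures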
condition.summary: S. cerevisiae CLN2oe strain, at 100.0 µM, active compounds read high
This is part of a sample that, as a whole, favours compounds with a hit. Of some 79,000 tested, about 15% had one in any assay. Calls of active or inactive are those of the source. Cut-off read from the data, not from the text of the source: active = growth inhibition above about 70%; inactive = the rest.
growth inhibition values by entry

| compound | growth inhibition |
| --- | --- |
| CC[C@@]1(OC(=O)CN(C)C)C(=O)OCc2c1cc1n(c2=O)Cc2cc3ccccc3nc2-1 | 87% (active) |
| O=[N+]([O-])c1ccc2nnnn2c1 | 1% (inactive) |
| CC(=O)CC[N+](C)(C)C | 36% (inactive) |
| CCCCCC(=O)C(C)(c1nc2n(c1O)/C(=N/C(=O)Nc1ccc(Cl)cc1)N=N2)c1nc2n(c1O)/C(=N/C(=O)Nc1ccc(Cl)cc1)N=N2 | 27% (inactive) |
| S=c1[nH]nc(Cc2ccccc2)c(=S)[nH]1 | 96% (active) |
| Cc1ccc2oc(-c3cccc(N)c3)nc2c1 | 15% (inactive) |
| CCOC(=O)C(NC(=O)c1ccccc1)[CH](c1ccccc1)[Sn]([c]1ccccc1)([c]1ccccc1)[c]1ccccc1 (stereo not drawn) | 95% (active) |
| CN(NC(=O)/C(=C/C=C/c1ccccc1)NC(=O)c1ccccc1)C1=C(Cl)C(=O)[N+](c2ccccc2)=CC1 | 44% (inactive) |
| CCC1SC(=S)N(c2ccc(Cl)cc2)C1=O (stereo not drawn) | 75% (active) |
| Cc1[nH]nc(C(F)(F)F)c1N=NN(C)C | 99% (active) |
| O=C(N/N=C/c1ccc2c(c1)CCC2)c1ccccc1[N+](=O)[O-] | 94% (active) |
| O=Cc1ccccc1B(O)O | 99% (active) |
| COc1ccc2c(Cc3c4ccccc4cc4ccccc34)cncc2c1O | 68% (inactive) |
| O=C1c2ccccc2-c2ccc(NC(=O)C3CCCCC3C(=O)O)cc21 (stereo not drawn) | 40% (inactive) |
| CC1(C)CC(=O)C(C(CC(c2ccccc2)c2cc3c(cc2O)OCO3)C2=C(O)CC(C)(C)CC2=O)=C(O)C1 (stereo not drawn) | 87% (active) |
| CCOC(=O)c1[nH]c2cccc3c2c1CC(Br)C3=O (stereo not drawn) | 67% (inactive) |
| [N-]=[N+]=NC1CC(n2ccc(=O)[nH]c2=O)OC1COC(c1ccccc1)(c1ccccc1)c1ccccc1 (stereo not drawn) | 80% (active) |
| Cc1ccc(P(c2ccc(C)cc2)c2ccc(C)cc2)cc1 | 18% (inactive) |
| CC(C)(C(=O)NN)c1ccccc1 | 81% (active) |
| COc1ccc(/C=C2\S/C(=N/Nc3nc(-c4ccccc4)cs3)NC2=O)cc1OC | 97% (active) |
| CN(C)c1ccc(/C=C/c2ccnc3ccc4ccccc4c23)cc1 | 55% (inactive) |
| CCOC(=O)C1=C(C)NC(C)=C(C(=O)OCC)C1c1ccc(Cl)cc1 | 88% (active) |
| CCCCCCC(CCl)c1sc(-c2csc(CCNC(=O)OC(C)(C)C)n2)nc1C(=O)OC (stereo not drawn) | 66% (inactive) |
| O=c1[nH]c(=O)n(CCCO)cc1F | 7% (inactive) |
| O=C(O)NCC1CCCCC1 (tested in a mixture with another compound) | 26% (inactive) |
| CC1=Cc2ccc(C)cc2C(=O)C1=O | 94% (active) |
| O=[N+]([O-])c1cccc2nc3ccccc3c(NCCC[N+]3([O-])CCOCC3)c12 | 91% (active) |
| O=C1c2ccc(O)cc2C(=O)c2c(O)ccc(O)c21 | 91% (active) |
| Cc1ccc(S(=O)(=O)N/N=C/c2c(O)ccc3ccccc23)cc1 | 71% (active) |
| O=S(=O)(CCC[C@H]1[C@@H](CCOCc2ccccc2)C2CCCN1O2)c1ccccc1 (stereo partly drawn) | 37% (inactive) |
| O=C(/C(=C/c1ccccc1)CBr)c1ccccc1 | 99% (active) |
| Cc1cccc(N2CCN(C(=O)/C(=C/c3ccccc3)NC(=O)c3ccccc3)CC2)c1 | 33% (inactive) |
| COc1ccc2c(C)cc(N/N=C/c3sccc3C)nc2c1 | 56% (inactive) |
| O=C1c2ccccc2C(=O)C1C(c1ccc(F)cc1)C1C(=O)c2ccccc2C1=O | 86% (active) |
| C#CC1=CC(=O)C(OC)=CC1=O | 99% (active) |
| COc1ccc(/C=C2\CCc3ccccc3C2=O)cc1OC | 92% (active) |
| COc1ccc(/C(=N/O)c2ccccc2C2=Nc3ccccc3C(NCc3ccccc3)O2)cc1C (stereo not drawn) | 94% (active) |
| CCc1nc2ccc(N=Nc3c(O)ccc4ccccc34)cc2[nH]1 | 95% (active) |
| CCCCCCCCCCCCCCCCOCC(Cl)COP(=O)(O)OP(=O)(O)OCC1OC(n2cnc3c(N)ncnc32)C(O)C1O (stereo not drawn) | 31% (inactive) |
| c1ccc(N/N=C2\CC(c3ccccc3)Oc3ccccc32)cc1 (stereo not drawn) | 17% (inactive) |
| O=S(=O)(O)c1ccc2c(N=Nc3c(O)ccc4ccccc34)cccc2c1 | 74% (active) |
| c1ccc(C2=NNC3c4ccccc4-c4ccccc4N3C2)cc1 (stereo not drawn) | 8% (inactive) |
| O=C(Nc1ccn(C2CC(O)C(COC(c3ccccc3)(c3ccccc3)c3ccccc3)O2)c(=O)n1)c1ccccc1 (stereo not drawn) | 92% (active) |
